The origin of these recorded values is patent US4226863A.

Reported MIC, Escherichia coli NIHJ.
experimental-readout: MIC (µg/mL)

Please review the entries below; each comes with its answer.
compound: CO[C@@]1(NC(=O)C(NC(=O)c2cnc3ccc(SC)nc3c2O)c2ccc(O)c(Cl)c2)C(=O)N2C(C(=O)O)=C(CSc3nnc(CO)s3)CS[C@@H]21 (stereo partly drawn)
experimental-readout: MIC
observed-value: 3.13
//
compound: CO[C@@]1(NC(=O)C(NC(=O)c2cccnc2O)c2ccc(O)cc2)C(=O)N2C(C(=O)O)=C(COC(N)=O)CS[C@@H]21 (stereo partly drawn)
experimental-readout: MIC
observed-value: 12.5
//
compound: CO[C@@]1(NC(=O)[C@H](NC(=O)c2cnc3cccnc3c2O)c2ccccc2)C(=O)N2C(C(=O)[O-])=C(C[n+]3ccccc3)CS[C@@H]21
experimental-readout: MIC
observed-value: 3.13

[I] COC1(NC(=O)C(NC(=O)c2cnccc2O)c2ccc(O)c(F)c2)C(=O)N2C(C(=O)O)=C(CSc3nnnn3C)CSC21 (stereo not drawn)
[II] CO[C@@]1(NC(=O)C(NC(=O)c2cnc3cncnc3c2O)c2ccccc2)C(=O)N2C(C(=O)O)=C(CSc3nnnn3C)CS[C@@H]21 (stereo partly drawn)
[III] CNc1nnc(SCC2=C(C(=O)O)N3C(=O)[C@](NC(=O)C(NC(=O)c4cnc5ccc(OC)nc5c4O)c4ccc(O)c(Cl)c4)(OC)[C@H]3SC2)s1 (stereo partly drawn)
query: Which order do these items take when sorted by rising MIC? List them. Would you mind listing the labels in the order asked for?
result: III, II, I

----------
system: Pseudomonas aeruginosa IID 5142; experiment: antimicrobial activity, minimum inhibitory concentration, Pseudomonas aeruginosa IID 5142; assay type: cell-based; conditions: IID5142
experimental-readout: MIC (µg/mL)

Examples with answers:
molecule: COC1(NC(=O)C(NC(=O)c2cnc3cn[nH]c3c2O)c2ccc(O)cc2)C(=O)N2C(C(=O)O)=C(CSc3nnnn3C)CSC21 (stereo not drawn)
experimental-readout: MIC
observed-value: 6.25
--
molecule: CO[C@@]1(NC(=O)C(NC(=O)c2cnccc2O)c2ccc(O)cc2)C(=O)N2C(C(=O)O)=C(CSc3nnnn3C)CS[C@@H]21 (stereo partly drawn)
experimental-readout: MIC
observed-value: 6.25
--
molecule: CO[C@@]1(NC(=O)[C@H](NC(=O)c2cnc3cccnc3c2O)c2ccc(O)cc2)C(=O)N2C(C(=O)O)=C(CSc3cnn[nH]3)CS[C@@H]21
experimental-readout: MIC
observed-value: 3.13

[I] CO[C@@]1(NC(=O)C(NC(=O)c2ccnnc2O)c2ccc(O)cc2)C(=O)N2C(C(=O)O)=C(CSc3nnnn3C)CS[C@@H]21 (stereo partly drawn)
[II] COC1(NC(=O)C(NC(=O)c2cnc3cccnc3c2O)c2ccc(O)cc2)C(=O)N2C(C(=O)O)=C(CSc3ccc4nnnn4n3)CSC21 (stereo not drawn)
query: Of I and II , which shows the smaller MIC value? Please indicate the selected item by its label.
result: II
(II: 6.25 µg/mL, I: 25 µg/mL)

----------
system: Proteus vulgaris HX 19; test: antimicrobial activity, minimum inhibitory concentration, Proteus vulgaris HX 19; format: cell-based; conditions: HX19
experimental-readout: MIC (µg/mL)

molecule: COC1(NC(=O)C(NC(=O)c2cnc3cn[nH]c3c2O)c2ccc(O)cc2)C(=O)N2C(C(=O)O)=C(CSc3nnnn3C)CSC21 (stereo not shown) [Example 46]
u: µg/mL
MIC: 0.39
--
molecule: CO[C@@]1(NC(=O)C(NC(=O)c2cnc3cncnc3c2O)c2ccccc2)C(=O)N2C(C(=O)O)=C(CSc3nnnn3C)CS[C@@H]21 (stereo partly shown) [Example 7]
u: µg/mL
MIC: 0.78
--
molecule: COC1(NC(=O)C(NC(=O)c2nnc(O)nc2O)c2ccc(O)cc2)C(=O)N2C(C(=O)O)=C(CSc3nnnn3C)CSC21 (stereo not shown) [Example 50]
u: µg/mL
MIC: 1.56

[a] COc1cnc2c(O)c(C(=O)NC(C(=O)N[C@]3(OC)C(=O)N4C(C(=O)O)=C(CSc5nnnn5C)CS[C@@H]43)c3ccc(O)cc3)cnc2n1 (stereo partly shown) [Example 17]
[b] CO[C@@]1(NC(=O)C(NC(=O)c2nccnc2O)c2ccc(O)cc2)C(=O)N2C(C(=O)O)=C(CSc3nnc(C)s3)CS[C@@H]21 (stereo partly shown) [Example 27]
[c] COC1(NC(=O)C(NC(=O)c2cnc3cccnc3c2O)c2cc(Cl)c(O)c(Cl)c2)C(=O)N2C(C(=O)O)=C(CSc3nnc(C)s3)CSC21 (stereo not shown) [Example 40]
[d] COC1(NC(=O)C(NC(=O)c2cnc3scnc3c2O)c2ccc(O)cc2)C(=O)N2C(C(=O)O)=C(COC(N)=O)CSC21 (stereo not shown) [Example 30]
query: Put the entries in order of MIC, starting with the largest number. // format: requested-order list of labels
result: b, c, d, a
(b: 1.56 µg/mL, c: 0.78 µg/mL, d: 0.39 µg/mL, a: 0.2 µg/mL)

[a] CO[C@@]1(NC(=O)C(NC(=O)c2ccnnc2O)c2ccc(O)cc2)C(=O)N2C(C(=O)O)=C(CSc3n[nH]c(=S)s3)CS[C@@H]21 (stereo partly shown) [Example 14]
[b] CO[C@@]1(NC(=O)C(NC(=O)c2cnccc2O)c2ccccc2)C(=O)N2C(C(=O)O)=C(COC(C)=O)CS[C@@H]21 (stereo partly shown) [Example 8]
query: Among a and b , which shows a numerically higher MIC result? Output the label that corresponds to your choice.
result: a
(a: 1.56 µg/mL, b: 0.39 µg/mL)

----------
test system: Proteus vulgaris HX 19
experimental-readout: MIC (µg/mL)

Example entries and their recorded answers appear below.
molecule: CO[C@@]1(NC(=O)C(NC(=O)c2cnc3ccc(SC)nc3c2O)c2ccc(O)c(Cl)c2)C(=O)N2C(C(=O)O)=C(CSc3nnc(CO)s3)CS[C@@H]21 (stereo partly shown)
experimental-system: Proteus vulgaris HX 19
MIC (µg/mL): 0.39
--
molecule: CO[C@@]1(NC(=O)C(NC(=O)c2cnccc2O)c2ccc(O)cc2)C(=O)N2C(C(=O)O)=C(CSc3nnnn3C)CS[C@@H]21 (stereo partly shown)
experimental-system: Proteus vulgaris HX 19
MIC (µg/mL): 0.39
--
molecule: COC1(NC(=O)C(NC(=O)c2cnccc2O)c2cccs2)C(=O)N2C(C(=O)O)=C(CSc3nnnn3C)CSC21 (stereo not shown)
experimental-system: Proteus vulgaris HX 19
MIC (µg/mL): 0.39
--
molecule: CO[C@@]1(NC(=O)C(NC(=O)c2cnc3nc(SC)ncc3c2O)c2ccc(O)cc2)C(=O)N2C(C(=O)O)=C(COC(N)=O)CS[C@@H]21 (stereo partly shown)
experimental-system: Proteus vulgaris HX 19
MIC (µg/mL): 0.78
--
molecule: COC1(NC(=O)C(NC(=O)c2cnc3cccnc3c2O)c2ccc(O)c(O)c2)C(=O)N2C(C(=O)O)=C(CSc3nnc(C)s3)CSC21 (stereo not shown)
experimental-system: Proteus vulgaris HX 19
MIC (µg/mL): 0.78
--
molecule: COC1(NC(=O)C(NC(=O)c2nnc(S)nc2O)c2ccccc2)C(=O)N2C(C(=O)O)=C(CSc3nnc(C)s3)CSC21 (stereo not shown)
experimental-system: Proteus vulgaris HX 19
MIC (µg/mL): 1.56
--
molecule: COC1(NC(=O)C(NC(=O)c2cnc3cccnc3c2O)c2cccc(O)c2)C(=O)N2C(C(=O)O)=C(CSc3nnc(C)s3)CSC21 (stereo not shown)
experimental-system: Proteus vulgaris HX 19
MIC (µg/mL): 0.39
--
molecule: CO[C@@]1(NC(=O)C(NC(=O)c2ncccc2O)c2ccccc2)C(=O)N2C(C(=O)[O-])=C(C[n+]3ccc(C(N)=O)cc3)CS[C@@H]21 (stereo partly shown)
experimental-system: Proteus vulgaris HX 19
MIC (µg/mL): 0.78

[I] CO[C@@]1(NC(=O)C(NC(=O)c2cccnc2O)c2ccc(O)cc2)C(=O)N2C(C(=O)O)=C(COC(N)=O)CS[C@@H]21 (stereo partly shown)
[II] COC1(NC(=O)C(NC(=O)c2cnc3cccnc3c2O)c2cccs2)C(=O)N2C(C(=O)O)=C(COC(N)=O)CSC21 (stereo not shown)
[III] COC1(NC(=O)C(NC(=O)c2nnc(SC)nc2O)c2ccccc2)C(=O)N2C(C(=O)O)=C(COC(N)=O)CSC21 (stereo not shown)
query: Ascending by MIC, please. API: response body holds the labels in the requested order.
result: II, I, III

[a] COC1(NC(=O)C(NC(=O)c2cnccc2O)c2ccc(O)c(O)c2)C(=O)N2C(C(=O)O)=C(COC(N)=O)CSC21 (stereo not shown)
[b] COC1(NC(=O)C(NC(=O)c2cnc3cccnc3c2O)c2ccco2)C(=O)N2C(C(=O)O)=C(CSc3nnnn3C)CSC21 (stereo not shown)
query: Which shows the larger MIC value: a or b ? # respond with the chosen item's label
result: a
(a: 0.78 µg/mL, b: 0.39 µg/mL)

----------
For reference, MIC measured on Proteus vulgaris HX 19:
experimental-readout: MIC (µg/mL)

Solved cases below.
molecule: CO[C@@]1(NC(=O)[C@H](NC(=O)c2cnc3cccnc3c2O)c2ccc(O)cc2)C(=O)N2C(C(=O)O)=C(CSc3nnnn3C)CS[C@@H]21 [Example 2]
experimental-system: Proteus vulgaris HX 19
u: µg/mL
MIC: 0.2
--
molecule: COC1(NC(=O)C(NC(=O)c2cc3ncccc3nc2O)c2ccc(O)cc2)C(=O)N2C(C(=O)O)=C(CSc3nnnn3C)CSC21 (centres unmarked) [Example 28]
experimental-system: Proteus vulgaris HX 19
u: µg/mL
MIC: 0.39
--
molecule: COC1(NC(=O)C(NC(=O)c2cnc3cccnc3c2O)C2=CCCCC2)C(=O)N2C(C(=O)O)=C(COC(C)=O)CSC21 (centres unmarked) [Example 36]
experimental-system: Proteus vulgaris HX 19
u: µg/mL
MIC: 0.39

[a] COC1(NC(=O)C(NC(=O)c2cnccc2O)c2ccc(O)c(F)c2)C(=O)N2C(C(=O)O)=C(CSc3nnnn3C)CSC21 (centres unmarked) [Example 41]
[b] COc1cc(C(NC(=O)c2cnc3cccnc3c2O)C(=O)NC2(OC)C(=O)N3C(C(=O)O)=C(COC(N)=O)CSC32)ccc1O (centres unmarked) [Example 39]
query: Compare reported MIC values for a and b . Which is lower? Give the label of your selection.
result: a
